experimental_target: μ opioid receptors (Homo sapiens, UniProt P35372)
Sequence (P35372 whole entry): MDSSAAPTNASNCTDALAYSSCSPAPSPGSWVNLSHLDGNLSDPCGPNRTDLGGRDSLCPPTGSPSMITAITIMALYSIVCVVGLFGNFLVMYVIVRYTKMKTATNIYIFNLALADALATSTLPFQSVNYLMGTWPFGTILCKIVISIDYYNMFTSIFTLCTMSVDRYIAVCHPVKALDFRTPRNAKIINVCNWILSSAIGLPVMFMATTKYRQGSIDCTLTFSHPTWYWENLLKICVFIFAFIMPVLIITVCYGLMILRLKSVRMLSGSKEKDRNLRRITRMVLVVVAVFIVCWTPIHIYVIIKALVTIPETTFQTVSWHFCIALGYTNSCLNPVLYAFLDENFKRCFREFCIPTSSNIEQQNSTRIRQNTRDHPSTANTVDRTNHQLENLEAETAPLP
experimental_details: Radioligand binding assay
property: Ki

compound	experimental_target	reported
Cl.NCc1c[nH]c(=S)n1[C@H]1CCc2c(F)cc(F)cc2C1 [nepicastat, hydrochloride]	μ opioid receptors (Homo sapiens, UniProt P35372)	> 10 µM

---

experimental_target: β1 adrenoceptors (Homo sapiens)
Sequence (P08588 whole entry): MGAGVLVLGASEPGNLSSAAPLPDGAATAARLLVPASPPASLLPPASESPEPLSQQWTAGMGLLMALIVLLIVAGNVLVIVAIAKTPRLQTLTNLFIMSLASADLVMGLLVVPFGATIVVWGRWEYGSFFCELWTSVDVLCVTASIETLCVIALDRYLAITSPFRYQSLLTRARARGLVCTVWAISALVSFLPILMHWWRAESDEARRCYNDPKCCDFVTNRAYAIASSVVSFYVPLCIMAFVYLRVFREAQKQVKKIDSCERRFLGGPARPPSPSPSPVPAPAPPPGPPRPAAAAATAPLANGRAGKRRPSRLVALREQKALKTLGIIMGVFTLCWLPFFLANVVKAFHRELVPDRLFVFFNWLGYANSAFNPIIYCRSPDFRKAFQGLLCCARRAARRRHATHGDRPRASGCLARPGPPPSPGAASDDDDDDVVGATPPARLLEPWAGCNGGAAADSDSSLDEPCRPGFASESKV

molecule	Ki
Cl.NCc1c[nH]c(=S)n1[C@H]1CCc2c(F)cc(F)cc2C1 [nepicastat, hydrochloride]	> 10 µM

---

experimental_target: D1 dopamine receptors (Homo sapiens, UniProt P21728)
Sequence (P21728 whole entry): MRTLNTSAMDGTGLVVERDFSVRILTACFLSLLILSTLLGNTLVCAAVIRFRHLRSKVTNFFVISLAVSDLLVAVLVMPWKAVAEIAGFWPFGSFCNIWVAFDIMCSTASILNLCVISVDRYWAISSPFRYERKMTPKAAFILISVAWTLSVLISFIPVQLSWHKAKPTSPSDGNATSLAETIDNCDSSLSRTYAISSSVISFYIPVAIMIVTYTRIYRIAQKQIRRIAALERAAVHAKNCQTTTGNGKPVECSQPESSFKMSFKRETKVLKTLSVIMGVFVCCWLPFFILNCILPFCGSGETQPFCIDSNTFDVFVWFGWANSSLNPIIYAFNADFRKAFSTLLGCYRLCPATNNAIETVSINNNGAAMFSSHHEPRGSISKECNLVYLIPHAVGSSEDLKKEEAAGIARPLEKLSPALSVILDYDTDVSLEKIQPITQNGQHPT
experimental_details: Radioligand binding assay
pKi: −log10 of the molar value.
property: pKi

molecule	reported
Cl.NCc1c[nH]c(=S)n1[C@H]1CCc2c(F)cc(F)cc2C1 [nepicastat, hydrochloride]	< 5.00
